Target: Recombinant human PI3Kγ (full length human PI3K p110γ) (Homo sapiens, UniProt P48736)
Construct: full length human PI3K p110γ fused with a His6-tag at the C-terminus; His6 (C); purchased ALEXIS BIOCHEMICALS #201-055-C010; host or cells: S. frugiperda 9 insect cells
Sequence (P48736 whole entry, the tested form may be a part): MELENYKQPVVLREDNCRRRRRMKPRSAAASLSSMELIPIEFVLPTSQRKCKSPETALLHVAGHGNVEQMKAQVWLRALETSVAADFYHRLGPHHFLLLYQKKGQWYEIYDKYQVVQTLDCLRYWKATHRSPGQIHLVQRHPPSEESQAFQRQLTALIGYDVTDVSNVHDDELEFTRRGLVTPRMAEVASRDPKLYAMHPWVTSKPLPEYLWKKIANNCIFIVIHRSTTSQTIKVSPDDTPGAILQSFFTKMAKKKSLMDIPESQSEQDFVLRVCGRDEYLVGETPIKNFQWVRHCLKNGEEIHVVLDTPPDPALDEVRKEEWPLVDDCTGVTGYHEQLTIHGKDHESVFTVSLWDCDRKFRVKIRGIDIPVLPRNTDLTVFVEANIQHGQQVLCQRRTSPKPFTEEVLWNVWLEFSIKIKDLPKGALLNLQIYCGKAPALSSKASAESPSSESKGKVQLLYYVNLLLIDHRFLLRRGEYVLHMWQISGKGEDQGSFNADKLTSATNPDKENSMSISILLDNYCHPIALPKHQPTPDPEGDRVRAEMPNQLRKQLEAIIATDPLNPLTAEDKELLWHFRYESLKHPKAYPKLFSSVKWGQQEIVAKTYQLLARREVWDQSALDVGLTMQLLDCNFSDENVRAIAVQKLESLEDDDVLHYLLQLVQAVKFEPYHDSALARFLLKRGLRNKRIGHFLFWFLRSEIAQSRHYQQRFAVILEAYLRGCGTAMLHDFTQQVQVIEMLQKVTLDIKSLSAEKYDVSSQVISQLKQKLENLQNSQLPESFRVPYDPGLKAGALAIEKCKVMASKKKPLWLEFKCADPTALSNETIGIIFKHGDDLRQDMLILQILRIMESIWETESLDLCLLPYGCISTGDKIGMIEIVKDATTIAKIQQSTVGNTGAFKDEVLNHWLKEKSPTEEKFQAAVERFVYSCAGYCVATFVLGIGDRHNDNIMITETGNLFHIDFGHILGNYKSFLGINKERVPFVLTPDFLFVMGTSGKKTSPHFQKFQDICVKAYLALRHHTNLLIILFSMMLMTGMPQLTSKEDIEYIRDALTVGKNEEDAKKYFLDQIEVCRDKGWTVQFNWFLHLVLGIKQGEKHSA
Assay: Kinase assay of PI3Kγ (solid-phase lipid kinase assay)
Format: biochemical
Conditions: Table 1, isozyme not given; read-out: in vitro
Protocol: [Determination of IC50 Values of Compounds in Kinase Assay of PI3Kγ] Chemicals and Assay Materials LABORATORIES (Toronto, Canada). […] The plates were subsequently air-dried by incubation for at least 2 hours in a fume hood. […] MicroScint PS™ (PACKARD) scintillation mix was added at 100 μl/well, and radioactivity was counted by using a TopCount™ (PACKARD) scintillation counter. […]
Entries and their measured IC50 follow.

O/C(=C\C1=Nc2ccccc2C2=NCCN12)c1nccs1 | < 100 nM

Requested field: IC50. Item: COc1cc2c(c(OC)c1C)N=C(/C=C(\O)c1cccnc1)N1CCN=C21
< 100 nM

Param item = O/C(=C\C1=Nc2ccccc2C2=NCCN12)c1ccno1 ; retrieve measured IC50.
100 to 500 nM

Endpoint output: IC50 of COc1cc2c(cc1OC)C1=NCCN1C(/C=C(\O)c1ccc(C#N)cc1)=N2 . Value?
> 2000 nM

Data provenance is patent US7511041B2.
